These measurements were taken from paper PMC12136788.

test.system: T1, UNK ZnF1-3 (human, UniProt Q9C0B0 31-174)
T1 sequence: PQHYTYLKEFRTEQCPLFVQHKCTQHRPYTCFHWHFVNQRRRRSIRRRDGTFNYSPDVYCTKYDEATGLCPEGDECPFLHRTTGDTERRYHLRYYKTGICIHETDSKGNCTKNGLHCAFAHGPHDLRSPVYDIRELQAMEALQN
assay.name: nsRBNS (natural sequence RNA bind-n-seq); RBNS binding buffer (assumed for nsRBNS): 25 mM Tris pH 7.5, 150 mM KCl, 3 mM MgCl2, 0.01% Triton X-100, 500 ug/ml BSA, 20 U/ml SUPERase-In, 4 C; UNK is unkempt and MSI1 is Musashi-1; names of the RNAs are library labels; protein concentration not given here; high values mean tight binding
In all, about 24,000 sequences were measured (“enrichment r”: median about 0.99, highest 2% from about 3.7 on). This excerpt belongs to a sample that is enriched for the highest values.
binding signal overview

binder	binding signal / enrichment R
chr19:41288892:41288893:-_ENSMUSG00000025016_ENSMUST00000025989|mus_mus|motif|central (ssRNA) RNA: GGGAGUUCUACAGUCCGACGAUCUGGAUGGAACUGAGAAAGCUGGUUAAUUUUAAGAUAAAUAAAUGAGGUUGAUCCAAACGGAGAUUAAGAUGACAGCAGAUAUAUUCCAUGCAGAAUUGAAUAGCUUUUAAUUUUGUUUUUCAACAGAGGAUUGAGCAUCA	5.2
chr20:57486015:57486016:+_ENSG00000087460_ENST00000306090|hu_mus|FALSE|FALSE (ssRNA) RNA: GGGAGUUCUACAGUCCGACGAUCCCUUUUUUUUCUUUUUCUUCUGUAGGCCGCCUUAAGCUUACUAAAUUUGGAACAUCUAAGCAAGCUGAAGGGAAGAGGGGUUUUUCAGAAUCACUGGGGGAAAAAGGAAAGGUUGCGGUGCAACAGAGGAUUGAGCAUCA	1.66
chr7:93623566:93623567:-_ENSG00000105829_ENST00000222547|hu_hu|FALSE|FALSE (ssRNA) RNA: GGGAGUUCUACAGUCCGACGAUCGAACAAAUUCCAAAUUCACAAUUACAUGCAUCACCUCAGUUUAAUAAUCCAAUAAAUGAUAAAAAAGACAAAUAAAGAAAACAGCAUCAUAUAGCACAGCAGCUUUGUUUGGCUCCCUCUCAACAGAGGAUUGAGCAUCA	2.97
